Target: T1, recombinant human CFD, His-tagged (human, UniProt P00746 26-253)
T1 construct: also called rhCFD-His
T1 sequence (P00746 26-253 limits assumed): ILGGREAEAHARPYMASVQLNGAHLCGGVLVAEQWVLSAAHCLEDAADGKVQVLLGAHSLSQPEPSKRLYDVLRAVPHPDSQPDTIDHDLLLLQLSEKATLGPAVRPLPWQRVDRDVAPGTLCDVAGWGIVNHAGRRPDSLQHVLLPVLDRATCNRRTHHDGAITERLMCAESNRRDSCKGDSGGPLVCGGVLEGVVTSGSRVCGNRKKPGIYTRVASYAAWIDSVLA
Assay: SPR MX96
Quick reference for pKd among some binders
Formally, pKd is defined as -log10 of the concentration c, with c in mol/L.

Field: example entries. Status: answers known.
binder	measured
KCD139 (antibody, V domains shown) VH: EVQLQQSGAELVRPGSSVKMSCKTSGYTFTSYGINWVKQRPGQGLEWIGYIYIANGYTENNEKFKGKAKLTSDISSSTAYMQLSSLTSEDSAIYFCARRFDYAGALDYWGQGTSVTVSS VL: DIVLTQSPASLAVSLGQRATISCRASESVDSYGNSFMHWYQQKPGQPPKLLIHRASNLESGIPARFSGSGSRTDFTLTINPVEADDVAIYYCQQTNDDPYTFGGGTNLEIK	8.48
KCD070 (antibody, V domains shown, chimeric) VH: EIQLQQTGPELVKPGASVKISCKASGYSFTDYIILWVKQSHGKSLEWIGNINPYYDYTSYNLKFKGKATLTVDKSSSTAYMQLNSLTSEDSAVYYCARSDGYYGGDYWGQGTSVTVSS VL: DIVMTQSHKFMSTSVGDRVSITCKASQDVGTAVAWYQQKPGQSPKLLIYWASTRHTGVPDRFTGSGSGTDFTLTINNVQSEDLADYFCQQYSSYPWTFGGGTTLEIK	8.48

Task: Give its pKd value. Item: KCD062 (antibody, V domains shown) VH: EVKLVESGGGLVQPGGSLKLSCAASGFTFSTYIMSWVRQTPEKRLEWVAYITSGGSSTYYPDTVKGRFTISRDNAKSTLYLQMSSLKSEDTAMYYCARHAHFYAMDYWGQGTSVTVSS VL: DIQMTQSPSSLSASLGGKVTITCKASQDINKYIAWYQHKPGKGPRLLIHYTSTLQPGIPSRFSGSGSGRDYSFSISNLEPEDIATYYCLQYDNLLYTFGGGTKLEIK
Output: 7.49
